Overview of recorded IC50 for various compounds
assay.target: Beta-lactamase 1 (Bacillus cereus)
method.description: Tested for the ability to inhibit Beta-lactamase of Bacillus cereus (class A enzyme) with 10 minutes pre-incubation
Please give a number only; it is taken to be in µM.

- molecule: "C[C@]1(CCl)[C@H](C(=O)O)N2C(=O)C[C@H]2S1(=O)=O"
  IC50, µM: 300

Next compound, please.
-- ask Quickly give me recorded IC50 for CC1(C)[C@H](C(=O)O)N2C(=O)C[C@H]2S1(=O)=O
-- reply 25

====

assay.target: Beta-lactamase 1 (Bacillus cereus, UniProt P00809)
Sequence (P00809 whole entry): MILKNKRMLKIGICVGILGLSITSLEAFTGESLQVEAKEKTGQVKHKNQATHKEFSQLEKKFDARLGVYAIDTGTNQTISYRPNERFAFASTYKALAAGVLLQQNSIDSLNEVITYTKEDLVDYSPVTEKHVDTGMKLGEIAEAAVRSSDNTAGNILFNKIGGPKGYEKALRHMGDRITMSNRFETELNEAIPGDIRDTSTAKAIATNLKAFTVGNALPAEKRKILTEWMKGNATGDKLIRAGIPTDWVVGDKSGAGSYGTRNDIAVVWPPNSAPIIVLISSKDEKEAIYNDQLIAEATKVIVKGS
method.description: Tested for the ability to inhibit Beta-lactamase of Bacillus cereus (class A enzyme) with 10 minutes pre-incubation
endpoint.name: pIC50
As a rule, pIC50 stands for the negative log10 of the concentration, concentration in M.

-- ask Quickly give me recorded pIC50 for C[C@]1(CCl)[C@H](C(=O)O)N2C(=O)[C@H](Br)[C@H]2S1(=O)=O
-- reply 3.00

-- ask Quickly give me recorded pIC50 for CC1(C)[C@H](C(=O)O)N2C(=O)[C@H](Cl)[C@H]2S1(=O)=O
-- reply 3.70

-- ask Quickly give me recorded pIC50 for C[C@]1(CCl)[C@H](C(=O)O)N2C(=O)[C@H](Cl)[C@H]2S1(=O)=O
-- reply 4.15

====

assay.target: Beta-lactamase 1 (Bacillus cereus, UniProt P00809)
method.description: Tested for the ability to inhibit Beta-lactamase of Bacillus cereus (class A enzyme) with 10 minutes pre-incubation
pIC50: −log10 of the molar value.
Overview of recorded pIC50 for various compounds

-- ask Quickly give me recorded pIC50 for C[C@]1(CCl)[C@H](C(=O)O)N2C(=O)[C@H](F)[C@H]2S1(=O)=O
-- reply < 2.52

-- ask Quickly give me recorded pIC50 for C[C@@]1(CSc2nc3ccccc3s2)S[C@@H]2[C@@H](F)C(=O)N2[C@H]1C(=O)O
-- reply < 2.30

-- ask Quickly give me recorded pIC50 for C[C@@]1(CSc2nc3ccccc3s2)S[C@@H]2[C@@H](Br)C(=O)N2[C@H]1C(=O)O
-- reply < 2.30

-- ask Quickly give me recorded pIC50 for C[C@@]1(CSc2nc3ccccc3s2)S[C@@H]2[C@@H](Cl)C(=O)N2[C@H]1C(=O)O
-- reply < 2.30
